Entries and their MIC50
# System: Escherichia coli
# method notes: Antimicrobial activity against Escherichia coli MTCC 443 by broth microdilution technique
# Format: functional
Note: unit µg/mL is implicit; provide only the numeric part.

Fc1ccc(-n2cc(-c3nc4cc(Br)ccc4o3)cn2)cc1F    250
Fc1ccc(-n2cc(-c3nc4ccccc4o3)cn2)cc1F    125
O=C(c1cnn(-c2ccc(F)c(F)c2)c1)c1cc(Cl)ccc1O    250
CCn1cc(C(=O)O)c(=O)c2cc(F)c(N3CCNCC3)cc21 [NORFLOXACIN]    10
CC1(C)S[C@@H]2[C@H](NC(=O)[C@H](N)c3ccccc3)C(=O)N2[C@H]1C(=O)O [AMPICILLIN]    100

Please turn your attention to the following entry.
# get_value(readout='MIC50', item= O=C(c1cnn(-c2ccc(F)c(F)c2)c1)c1ccccc1O ) 250
